Test system: HOP-62
Experiment: NCI tumour cell line growth inhibition, 48 h
Active and inactive are the calls of the source. No stated cut-off is given here; in the data, active = GI50 up to about 1.1 µM and inactive = higher.

{"columns": ["smiles_string", "measurement_target", "GI50"],
 "data": [
  ["N#Cc1nc(Nc2ccc(Cl)cc2)sc1N", "HOP-62", "15 µM (inactive)"],
  ["O=C(CCCn1ccnc1[N+](=O)[O-])NCCn1ccnc1", "HOP-62", "> 100 µM (inactive)"],
  ["C=CCN1C(=O)/C(=C/c2cccs2)N=C1SC/C=C/C", "HOP-62", "> 100 µM (inactive)"]
]}

---

System: DMS-114
Assay: NCI tumour cell line growth inhibition, 48 h
Calls of active or inactive are those of the source. No stated cut-off is given here; in the data, active = GI50 up to about 1.1 µM and inactive = higher.
Classes used: class 1 for active, class 0 for inactive

{"columns": ["compound", "assigned_category"],
 "data": [
  ["NC1CCCCC1.O=P(O)(O)C(CSc1ccccc1)P(=O)(O)O", "class 0"],
  ["Cc1cc(C)nc(NS(=O)(=O)c2ccc(NC(=O)c3ccc(Cl)c4c(Nc5ccc(S(=O)(=O)Nc6cc(C)on6)cc5)c5ccccc5nc34)cc2)n1", "class 0"],
  ["CCOC(=O)c1c2ccc(/C=C/c3ccccc3)ccc-2c(C(=O)OCC)c1N", "class 0"],
  ["COc1ccc(NC(=O)CC(=O)N/N=C(\\C)c2cc3ccccc3oc2=O)cc1", "class 0"],
  ["O=C(O/N=C1/CCCC/C1=C\\c1ccccc1)c1ccccc1", "class 0"],
  ["O=C1NC(=O)C(C(=O)C(=O)Nc2cccc(C(F)(F)F)c2)C(=O)N1", "class 0"],
  ["NCCCNCCCCN(CCCN)/[N+]([O-])=N\\O", "class 0"],
  ["O=c1c2ccccc2nc(-c2ccccc2Cl)n1NC1OC(CO)C(O)C(O)C1O (stereo unspecified)", "class 0"],
  ["CC(C)c1cc(C(C)C)c(S(=O)(=O)NN)c(C(C)C)c1", "class 0"],
  ["COc1cc(CNc2ccc(C)cc2)cc(OC)c1OC", "class 1"],
  ["COc1c(OC(C)=O)c(OC(C)=O)cc2c1-c1ccc(OC)c(=O)cc1C(NC(C)=O)CC2 (stereo unspecified)", "class 1"],
  ["CN(CCN(C)C(=O)CCn1cc(F)c(=O)[nH]c1=O)C(=O)CCn1cc(F)c(=O)[nH]c1=O", "class 0"],
  ["CCOC(=O)C1=C(C)Nc2ccccc2S1", "class 0"],
  ["c1ccc(SC(Sc2ccccc2)=C2CCC2)cc1", "class 0"],
  ["CCOC(=O)Nc1ccc(S(=O)(=O)NCCCl)cc1.CCOC(=O)Nc1ccc(S(=O)(=O)NCCCl)cc1.O=C(O)c1ccc(/N=N/Cl)cc1O", "class 0"],
  ["CCN1c2ccccc2C(C(SC)S(=O)(=O)c2ccc(C)cc2)c2c1[nH]c(=O)n(C)c2=O (stereo unspecified)", "class 0"],
  ["CC1=CC(=C(c2ccc(N)c(C)c2)c2ccc(N)c(C)c2)C=CC1=N", "class 0"],
  ["C[N+](C)(C)CC1CCC/C1=N/O (stereo unspecified)", "class 0"],
  ["Cn1cnc([N+](=O)[O-])c1Sc1nnnn1C", "class 0"],
  ["N#CC1(CCCI)CCCC1", "class 0"],
  ["CC(=O)NNc1nc(C)c(C(=O)NNC(=O)C(=O)Nc2c(Cl)cc([N+](=O)[O-])cc2Cl)s1", "class 0"],
  ["O=[N+]([O-])c1cc(/C=N/NS(=O)(=O)c2ccc(F)cc2)c(O)c([N+](=O)[O-])c1", "class 0"],
  ["Cc1ccc([N+](=O)[O-])cc1NC(=O)C(=O)C(C(=O)c1ccccc1F)C1OC(=O)c2ccccc21 (stereo unspecified)", "class 0"],
  ["O=C(O)CSc1nnc(-c2ccccc2O)[nH]1", "class 0"],
  ["CCCCCCCCCCCCCC(=O)CBr", "class 0"],
  ["COc1nc2[nH]ccc2c(=O)[nH]1", "class 0"]
]}

---

System: U-251
Assay: NCI tumour cell line growth inhibition, 48 h
Calls of active or inactive are those of the source. Cut-off read from the data, not from the text of the source: active = GI50 up to about 1.1 µM and inactive = higher.
Items are presented alongside their recorded GI50.
measurement_kind: GI50

{"columns": ["molecule", "measurement_target", "value_reported"],
 "data": [
  ["COc1cc(C(=O)C/C(CCC(=O)Nc2ccc(Cl)cc2Cl)=N/NC(=O)C(=O)NN)ccc1O", "U-251", "> 100 µM (inactive)"],
  ["C[C@H]1[C@H]2[C@H](C[C@@]3(C)C4=CC[C@H]5C(C)(C)[C@@H](OC6OCC(O)C(O)C6O)CC[C@@]56C[C@@]46CC[C@]23C)O[C@@]2(O)[C@@H]1OC(C)(C)[C@H]2O (stereo not given in full)", "U-251", "1.69 µM (inactive)"],
  ["O=C(NNC(=S)Nc1ccccc1)c1csc(NC(=S)NC2CCCCC2)n1", "U-251", "48.4 µM (inactive)"],
  ["CCOc1cc(/C=N\\O)cc(/C=N/O)c1O", "U-251", "25.6 µM (inactive)"],
  ["O=C(N/N=C(COc1ccccc1)\\N=C\\c1cccnc1)c1ccncc1", "U-251", "> 100 µM (inactive)"]
]}

---

Test system: MCF7
Experiment: NCI tumour cell line growth inhibition, 48 h
Activity calls are given as the source filed them. Rule as the data show it: active = GI50 up to about 1.1 µM and inactive = higher.

{"columns": ["compound", "GI50"],
 "data": [
  ["CCOC(=O)c1sc(N/N=C2\\NC(=O)/C(=C/c3ccc([N+](=O)[O-])cc3)S2)nc1C", "22.3 µM (inactive)"],
  ["[N-]=[N+]=NC1C(O)C(CO)OC1n1ccc(N)nc1=O (centres undefined)", "24 µM (inactive)"],
  ["CCOC(=O)/C(=C\\NCC(O)c1ccccc1)c1nc2ccccc2[nH]1 (centres undefined)", "18.7 µM (inactive)"],
  ["COc1cc(/C=C2\\N=C(c3ccccc3)N(c3nc4c(OC)ccc(OC)c4s3)C2=O)ccc1O", "17.3 µM (inactive)"],
  ["CC1CNC(c2ccc(CN3CCC(CCCC4CCN(Cc5ccc(C6=NC(C)CN6)cc5)CC4)CC3)cc2)=N1 (centres undefined)", "19.8 µM (inactive)"],
  ["Cc1cc2occ(S(=O)(=O)NC(=O)Nc3ccc(Cl)cc3)c(=O)c2c(=O)o1", "> 100 µM (inactive)"],
  ["Cn1c2ccccc2n2c3ncccc3/c(=N/CCCC(=O)O)c(C#N)c12", "> 100 µM (inactive)"],
  ["O=C1/C(=N/O)Cc2c(Br)ccc(Br)c21", "36.1 µM (inactive)"],
  ["COC(=O)C1(C(=O)OC)Cc2ccc(C)cc2C2=C1C(=O)c1ccccc1C2=O", "15 µM (inactive)"],
  ["OC(CC(O)(C(F)(F)F)C(F)(F)F)C(O)c1ccco1 (centres undefined)", "> 10 µM (inactive)"],
  ["COC(=O)C1(Cc2ccccc2C)Cc2ccc(C)cc2C1=O (centres undefined)", "20 µM (inactive)"],
  ["O=C(Nc1ccccc1)c1cc(S(=O)(=O)Nc2n[nH]c(=O)n2-c2ccccc2)c(S)cc1Cl", "> 100 µM (inactive)"],
  ["Oc1cc(-c2cccc(OCc3ccccc3)c2)nc2cc3c(cc12)OCO3", "1.91 µM (inactive)"],
  ["Cc1ccc(C(=O)OC[C@H]2CC[C@@H](n3cc(N(C)C4CCCCC4)c(=O)[nH]c3=O)O2)cc1", "22.1 µM (inactive)"],
  ["O=CC(O)C(O)C(O)C1CNC(=S)O1 (centres undefined)", "> 100 µM (inactive)"],
  ["CC1C(O)Oc2cc3c(cc2C1c1ccccc1O)OCO3 (centres undefined)", "38.1 µM (inactive)"],
  ["CC(=O)OCC1OC(n2c(-c3ccc(Cl)cc3)cc(-c3ccccc3)c(C#N)c2=S)C(OC(C)=O)C(OC(C)=O)C1OC(C)=O (centres undefined)", "17.3 µM (inactive)"],
  ["Cc1c2ccncc2cc2c1[nH]c1ccccc12", "1.57 µM (inactive)"],
  ["O=C1/C(=N/c2ccccc2)Oc2cc(O)ccc21", "56.4 µM (inactive)"]
]}

---

Test system: UACC-257
Test: NCI tumour cell line growth inhibition, 48 h
Active and inactive are the calls of the source. Cut-off read from the data, not from the text of the source: active = GI50 up to about 1.1 µM and inactive = higher.
Items are presented alongside their recorded GI50.
measurement_kind: GI50

{"columns": ["compound", "measurement_target", "measurement_kind", "value_reported"],
 "data": [
  ["CC(=O)NC1C(OCc2ccccc2)OC(CO)C(O)C1OC(C)C(=O)NC(C(=O)NC(CCC(=O)NCCCC(=O)Nc1ccc2c(c1)CN1C(=O)c3ccccc3C1=N2)C(N)=O)C(C)C (stereo not given)", "UACC-257", "GI50", "> 100 µM (inactive)"],
  ["O=c1c2ccccc2nc(-c2ccccc2)n1O", "UACC-257", "GI50", "> 100 µM (inactive)"],
  ["CCOC(=O)c1c(-c2ccccc2)oc(=O)c(Cc2cccc3cccnc23)c1-c1ccccc1", "UACC-257", "GI50", "> 10 µM (inactive)"],
  ["C=C(Cl)C(Cl)(CBr)CCCC(C)(C)Cl (stereo not given)", "UACC-257", "GI50", "3.15 µM (inactive)"],
  ["N=C(CC(=O)Nc1ccccn1)c1ccccc1", "UACC-257", "GI50", "> 100 µM (inactive)"]
]}
